Experiment: Pseudomonas biofilm growth suppression – PAO1 strain, BacTiter-Glo luminescence, LB-PBS, primary screen (AID 1144)
Conditions: P. aeruginosa PAO1 biofilm, 12 h, higher = more signal
Calls of active or inactive are those of the source. How the calls were made is not given here.
We begin with a simple list: items and their reported z-score.

# get_value(readout='z-score', item= COc1ccc([Si](C)(C)[C@@H]2[C@@H](CC(=O)N(CCO)Cc3ccccc3)O[C@]3(C(=O)N(Cc4cccc(N5CCCCC5=O)c4)c4ccccc43)[C@H]2C)cc1 ) -0.952 (inactive)

I'd like to know its z-score. The molecule in question is CCOC(=O)C1=CC[C@@H](c2ccccc2)N(S(=O)(=O)c2ccc(C)cc2)[C@H]1c1ccccc1 1.29 (inactive)

Give its z-score value. Item: COC(=O)[C@@]1(Cc2ccc(OC)cc2)[C@H]2c3cc(C(=O)N(C)C)n(Cc4ccc(OC(F)(F)F)cc4)c3C[C@H]2CN1C(=O)c1ccccc1 0.043 (inactive)

Please report the recorded z-score for COC(=O)[C@]1(CCS(=O)(=O)c2ccccc2)N=C(c2ccc(OCCCO)cc2)O[C@@H]1c1ccccc1N=[N+]=[N-] . -0.731 (inactive)

Any idea what z-score was measured for C=CCC(OC(C)=O)[C@@H]1[C@@H](N(Cc2ccc(-c3ccccc3)cc2)C(=O)c2ccc(-c3ccccc3)cc2)c2cc(OCCCO)ccc2N1C(=O)c1ccc2ccccc2c1 (stereo not given in full) ? -0.0995 (inactive)

Continuing:
# lookup: z-score of COc1cccc(C)c1NC(=O)O[C@H]1[C@H](OC(=O)Nc2ccc3c(c2)OCO3)[C@@H](OC(=O)Nc2ccc3c(c2)OCO3)[C@@H](OC)O[C@@H]1CO 0.0488 (inactive)

Look up z-score for this molecule: COCCOC(=O)N1C(=O)[C@@]2(c3cc(C#CC4=CCCCC4)ccc31)[C@H](c1ccccc1OCCO)N1[C@H](c3ccccc3)[C@H](c3ccccc3)OC(=O)[C@H]1[C@@H]2C(=O)N1CCN(c2ncccn2)CC1 -1.23 (inactive)

Which z-score is reported for this molecule? CCOC(=O)C[C@H]1[C@H](OC(=O)Cc2ccc3c(c2)OCO3)[C@@H](NC(=O)c2ccc3ccccc3n2)c2cc(OCCCO)ccc2N1C(=O)c1ccccc1 -0.283 (inactive)

Returns the measured z-score for the input molecule. Input: [N-]=[N+]=Nc1ccccc1C[C@]1(C(=O)NCC(O)CO)COC(c2ccc(OCCCO)cc2)=N1 (stereo not given in full) -0.3 (inactive)

Please report the recorded z-score for Cc1ccc(S[C@]2(C(=O)NCC(F)(F)F)CC(=O)N(Cc3cc(C(F)(F)F)cc(C(F)(F)F)c3)[C@@H]2c2ccc(CO)cc2)cc1 . 0.75 (inactive)

Name the recorded z-score for [N-]=[N+]=Nc1ccccc1C[C@@]1(C(=O)N2CCOCC2)N=C(c2ccc(OCCCO)cc2)O[C@@H]1c1ccccc1 . 0.83 (inactive)

I'd like to know its z-score. The molecule in question is CC(CO)N1C(=O)[C@@H]2[C@H]3C(=O)OCC=C[C@H]3OC23C=CCN(Cn2nnc4ccccc42)C(=O)[C@@H]13 (stereo not given in full) 1.48 (inactive)
